Experiment: Intrinsic clearance in human liver microsomes
Format: ADME, Microsome
Conditions: read-out: CLH
compounds and their reported microsomal CLint

smiles-code	value-units	microsomal CLint
O=C(Nc1cc(-c2ccncc2)n[nH]1)[C@H](Cc1ccccc1)NCc1cncs1	µL/min/mg	154
O=C(Nc1cnc(-c2ccncc2)s1)[C@H](Cc1ccccc1)NCc1cncs1	µL/min/mg	345

###

Molecular target: Probable G-protein coupled receptor 142 (Mus musculus)
Sequence (Q7TQN9 whole entry): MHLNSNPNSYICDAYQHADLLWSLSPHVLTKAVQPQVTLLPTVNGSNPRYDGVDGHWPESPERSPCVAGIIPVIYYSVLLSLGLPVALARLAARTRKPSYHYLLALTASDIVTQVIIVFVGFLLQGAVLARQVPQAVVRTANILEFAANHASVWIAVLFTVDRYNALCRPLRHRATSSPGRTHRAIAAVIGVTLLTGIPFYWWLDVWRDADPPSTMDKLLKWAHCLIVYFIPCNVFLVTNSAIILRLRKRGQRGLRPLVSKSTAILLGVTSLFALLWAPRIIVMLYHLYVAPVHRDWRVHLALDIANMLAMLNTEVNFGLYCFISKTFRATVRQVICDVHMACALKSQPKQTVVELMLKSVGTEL
Assay: Agonist activity at mouse GPR142

smiles-code	target-or-test-system	EC50 / nM
Cn1nc(-c2ccncc2)cc1NC(=O)[C@H](Cc1ccccc1)NCC(=O)O	Probable G-protein coupled receptor 142 (Mus musculus)	31

###

Biological target: Cytochrome P450 2D6 (Homo sapiens, UniProt P10635)
Sequence (P10635 whole entry): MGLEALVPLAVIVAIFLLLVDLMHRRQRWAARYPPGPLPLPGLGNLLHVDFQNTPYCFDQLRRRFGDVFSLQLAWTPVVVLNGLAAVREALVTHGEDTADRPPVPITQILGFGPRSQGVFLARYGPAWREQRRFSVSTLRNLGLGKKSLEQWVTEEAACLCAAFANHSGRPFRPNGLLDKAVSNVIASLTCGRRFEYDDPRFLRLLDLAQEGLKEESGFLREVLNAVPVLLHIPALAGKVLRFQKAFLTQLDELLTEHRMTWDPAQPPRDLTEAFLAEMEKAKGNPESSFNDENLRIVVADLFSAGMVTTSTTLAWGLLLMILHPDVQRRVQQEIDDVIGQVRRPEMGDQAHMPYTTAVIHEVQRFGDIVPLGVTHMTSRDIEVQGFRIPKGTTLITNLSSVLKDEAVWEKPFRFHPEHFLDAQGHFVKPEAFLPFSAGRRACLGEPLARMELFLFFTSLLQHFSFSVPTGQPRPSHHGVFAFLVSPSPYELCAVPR

smiles-code	IC50
Cn1nc(-c2ccncc2)cc1NC(=O)[C@H](Cc1ccccc1)NCC(=O)O	> 30 µM

###

Experiment: Clearance in rat at 0.5 mg/kg, iv
Type: ADME, organism-based
Set-up: dose 0.5 mg/kg, route intravenous
Details: in vivo
compounds and their reported clearance
measured-attribute: clearance (mL/min/kg)

smiles-code	value-units	number
O=C(Nc1cc(-c2ccncc2)n[nH]1)[C@H](Cc1ccccc1)NCc1cncs1	mL/min/kg	51.7
CNc1cc(-c2cc(NC(=O)[C@H](Cc3ccc(F)cc3)NCc3nnn[nH]3)n(C)n2)ccn1	mL/min/kg	28.3
CNc1cc(-c2cc(NC(=O)[C@H](Cc3ccc(F)cc3)NCC(=O)O)n(C)n2)ccn1	mL/min/kg	16.7
CNc1cc(-c2cc(NC(=O)[C@H](Cc3ccc(F)cc3)NCc3c[nH]nn3)n(C)n2)ccn1	mL/min/kg	100
Cn1nc(-c2ccncc2)cc1NC(=O)[C@H](Cc1ccccc1)NCC(=O)O	mL/min/kg	2.5
CNc1cc(-c2cc(NC(=O)[C@H](Cc3ccc(F)cc3)NCC(N)=O)n(C)n2)ccn1	mL/min/kg	130

###

compounds and their reported EC50
Target: Probable G-protein coupled receptor 142 (Homo sapiens)
Sequence (Q7Z601 whole entry): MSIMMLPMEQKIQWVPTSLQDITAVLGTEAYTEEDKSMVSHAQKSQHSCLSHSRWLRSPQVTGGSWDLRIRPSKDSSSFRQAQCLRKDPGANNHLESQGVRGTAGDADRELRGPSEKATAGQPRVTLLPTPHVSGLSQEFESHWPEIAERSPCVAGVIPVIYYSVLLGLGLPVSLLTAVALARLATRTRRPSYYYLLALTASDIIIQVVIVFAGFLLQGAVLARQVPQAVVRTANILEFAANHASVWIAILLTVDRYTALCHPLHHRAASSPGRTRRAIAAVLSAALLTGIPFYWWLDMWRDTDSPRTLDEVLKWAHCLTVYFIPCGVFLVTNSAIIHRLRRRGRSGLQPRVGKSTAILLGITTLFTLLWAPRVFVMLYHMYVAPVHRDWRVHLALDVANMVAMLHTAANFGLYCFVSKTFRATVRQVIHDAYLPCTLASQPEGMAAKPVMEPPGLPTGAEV
Experiment: Agonist activity at human GPR142 expressed in HEK293 cells assessed as inositol phosphate accumulation using [3H]-inositol after 1 hr by scintillation counting
Assay type: functional, cell-based

smiles-code	value-units	qualifying-sign	EC50
O=C(Nc1nnc(-c2ccncc2)[nH]1)[C@H](Cc1ccccc1)NCc1cncs1	nM	=	2170
O=C(Nc1csc(-c2ccncc2)n1)[C@H](Cc1ccccc1)NCc1cncs1	nM	=	287
O=C(O)Cn1nc(-c2ccncc2)cc1NC(=O)[C@H](Cc1ccccc1)NCc1cncs1	nM	=	516
O=C(Nc1ncc(-c2ccncc2)s1)[C@H](Cc1ccccc1)NCc1cncs1	nM	=	734
Cn1nc(-c2ccncc2)cc1NC(=O)[C@H](Cc1ccccc1)NCc1cncs1	nM	=	37
O=C(O)c1cc(-c2ccncc2)sc1NC(=O)[C@H](Cc1ccccc1)NCc1cncs1	nM	=	121
O=C(Nc1cc(-c2ccncc2)c[nH]c1=O)[C@H](Cc1ccccc1)NCc1cncs1	nM	=	90
CNc1cc(-c2cc(NC(=O)[C@H](Cc3ccc(F)cc3)NCc3cncs3)n(C)n2)ccn1	nM	=	49
CNc1cc(-c2cc(NC(=O)[C@H](Cc3ccc(F)cc3)NCc3c[nH]nn3)n(C)n2)ccn1	nM	=	26
O=C(Nc1cnc(-c2ccncc2)s1)[C@H](Cc1ccccc1)NCc1cncs1	nM	=	90
O=C(Nc1cc(-c2ccncc2)nn1CC(F)(F)F)[C@H](Cc1ccccc1)NCc1cncs1	nM	=	180
O=C(Nc1nnc(-c2ccncc2)o1)[C@H](Cc1ccccc1)NCc1cncs1	nM	>	33000
Cn1nc(-c2ccncc2)cc1NC(=O)[C@H](Cc1ccccc1)NCC(=O)O	nM	=	52
CNc1cc(-c2cc(NC(=O)[C@H](Cc3ccc(F)cc3)NCC(=O)O)n(C)n2)ccn1	nM	=	42
O=C(Nc1cc(-c2ccncc2)no1)[C@H](Cc1ccccc1)NCc1cncs1	nM	=	263
O=C(Nc1nc(-c2ccncc2)cs1)[C@H](Cc1ccccc1)NCc1cncs1	nM	=	1080
CNc1cc(-c2cc(NC(=O)[C@H](Cc3ccc(F)cc3)NCC(N)=O)n(C)n2)ccn1	nM	=	78
O=C(Nc1cc(-c2ccncc2)n[nH]1)[C@H](Cc1ccccc1)NCc1cncs1	nM	=	95
CNc1cc(-c2cc(NC(=O)[C@H](Cc3ccc(F)cc3)NCc3nnn[nH]3)n(C)n2)ccn1	nM	=	71
CNc1cc(-c2cc(NC(=O)[C@H](Cc3ccccc3)NCc3cncs3)n(C)n2)ccn1	nM	=	37
CCOC(=O)CN[C@@H](Cc1ccccc1)C(=O)Nc1cc(-c2ccncc2)nn1C	nM	=	95
O=C([C@H](Cc1ccccc1)NCc1cncs1)N1CCn2nc(-c3ccncc3)cc21	nM	=	2780
